Entry source: patent US9315458B2

Target: human M1 receptor (hCHRM1) (Homo sapiens)
Sequence (P11229 whole entry): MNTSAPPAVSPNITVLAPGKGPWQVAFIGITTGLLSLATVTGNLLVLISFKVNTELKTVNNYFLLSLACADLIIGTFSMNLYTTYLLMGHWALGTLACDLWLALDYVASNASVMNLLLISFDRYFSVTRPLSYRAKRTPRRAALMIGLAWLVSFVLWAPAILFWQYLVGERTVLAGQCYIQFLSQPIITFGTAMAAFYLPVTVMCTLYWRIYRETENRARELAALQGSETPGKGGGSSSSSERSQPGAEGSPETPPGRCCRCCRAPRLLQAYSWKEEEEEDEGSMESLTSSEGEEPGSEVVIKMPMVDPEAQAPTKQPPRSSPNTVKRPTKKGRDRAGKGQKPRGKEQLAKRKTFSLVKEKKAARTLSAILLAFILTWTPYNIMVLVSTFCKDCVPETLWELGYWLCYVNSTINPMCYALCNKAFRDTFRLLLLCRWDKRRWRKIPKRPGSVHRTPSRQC
Test: Measurement of M1 receptor positive allosteric modulator (M1PAM) activity, calcium fluorescence (FLIPRtetra) with acetylcholine at EC20
Details: inflection point of concentration-dependent curve; CHO-K1 cells expressing hCHRM1; acetylcholine at EC20 (final 0.6-0.8 nM); read-out: IP value
Procedure: The activity of a test compound in the presence of acetylcholine at EC20 concentration (final concentration 0.6-0.8 nM), which affords an action corresponding to about 20% of the maximum activity, was measured as PAM activity. […] A test compound prepared by diluting with assay buffer B (HBSS (Invitrogen), 20 mM HEPES (Invitrogen), 0.1% BSA) containing 2.4-3.2 nM acetylcholine was added at 10 μL/well, and the fluorescence was measured by FLIPRtetra (Molecular Devices) for 1 min every 1 second. […]
Here the recorded EC50 is given for each entry.

# MOLECULE, TARGET DESC, EC50, nM
rows = [
    ("COc1cc2c(cc1Cc1ccc(-n3cccn3)cc1)C(=O)N([C@H]1CCCC[C@@H]1O)C2 (racemic)", "human M1 receptor (hCHRM1) (Homo sapiens)", 15),
    ("COc1c(Cc2ccc(-n3cccn3)cc2)cc2c(c1Cl)CN([C@H]1CCC[C@@H]1O)C2=O (racemic)", "human M1 receptor (hCHRM1) (Homo sapiens)", 60),
    ("COc1ccc(Cc2cc3c(c(C)c2C)CN([C@H]2COCC[C@@H]2O)C3=O)cc1 [Example 18]", "human M1 receptor (hCHRM1) (Homo sapiens)", 10),
    ("Cc1c(Cc2ccc(-c3ccn(C)n3)cc2)cc2c(c1C)CN([C@H]1CCC[C@@H]1O)C2=O (racemic) [Example 83]", "human M1 receptor (hCHRM1) (Homo sapiens)", 13),
    ("CCc1cc2c(cc1Cc1ccc(-c3cn(C)nn3)cc1)C(=O)N([C@H]1CCC[C@@H]1O)C2 [Example 119]", "human M1 receptor (hCHRM1) (Homo sapiens)", 3.1),
    ("Cc1c(Cc2ccc(-c3cn(C)nn3)cc2F)cc2c(c1C)CN(CC1CCCO1)C2=O (stereo not drawn)", "human M1 receptor (hCHRM1) (Homo sapiens)", 6),
    ("Cc1c(Cc2ccc(C#N)cc2F)cc2c(c1C)CN([C@H]1COCC[C@@H]1O)C2=O [Example 124]", "human M1 receptor (hCHRM1) (Homo sapiens)", 16),
    ("CCc1cc2c(cc1Cc1ccc(-c3cn(C)nn3)cc1)C(=O)N([C@H]1CCC[C@@H]1O)C2 (racemic) [Example 106]", "human M1 receptor (hCHRM1) (Homo sapiens)", 11),
    ("O=C1c2cc(Cc3ccc(-n4cccn4)cc3)c(C3CC3)cc2CN1CC1CCCO1 (stereo not drawn)", "human M1 receptor (hCHRM1) (Homo sapiens)", 95),
    ("Cc1cc2c(cc1Cc1ccc(-n3cccn3)cc1)C(=O)N([C@H]1CCC[C@@H]1O)C2 (racemic) [Example 33]", "human M1 receptor (hCHRM1) (Homo sapiens)", 37),
    ("Cc1c(Cc2ccc(-c3cnn(C)c3)cc2)cc2c(c1C)CN([C@H]1CCC[C@@H]1O)C2=O (racemic)", "human M1 receptor (hCHRM1) (Homo sapiens)", 13),
    ("Cc1c(Cc2ccc(-n3cccn3)cc2)cc2c(c1Cl)CN(CC(C)(C)O)C2=O", "human M1 receptor (hCHRM1) (Homo sapiens)", 7.3),
    ("Cc1c(Cc2ccc(-n3cccn3)cc2)cc2c(c1Cl)CN([C@H]1CCC[C@@H]1O)C2=O [Example 131]", "human M1 receptor (hCHRM1) (Homo sapiens)", 12),
    ("Cc1cc2c(cc1Cc1ccc(-n3cccn3)cc1)C(=O)N(C(C)C(C)(C)O)C2 (stereo not drawn)", "human M1 receptor (hCHRM1) (Homo sapiens)", 35),
    ("Cc1cc2c(cc1Cc1ccc(-n3cccn3)cc1)C(=O)N(CC1CCCO1)C2 (stereo not drawn)", "human M1 receptor (hCHRM1) (Homo sapiens)", 83),
    ("Cc1cc2c(cc1Cc1ccc(-c3cn(C)nn3)cc1)C(=O)N(CC1CCCO1)C2 (stereo not drawn)", "human M1 receptor (hCHRM1) (Homo sapiens)", 31),
    ("Cc1c(Cc2ccc(-c3cn(C)nn3)cc2)cc2c(c1C)CN(C[C@@H]1CCCO1)C2=O", "human M1 receptor (hCHRM1) (Homo sapiens)", 1.2),
    ("Cc1c(Cc2ccc(-c3ccn(C)n3)cc2)cc2c(c1C)CN([C@H]1CCC[C@@H]1O)C2=O [Example 13]", "human M1 receptor (hCHRM1) (Homo sapiens)", 7.9),
    ("COc1ccc(Cc2cc3c(c(C)c2C)CN([C@H]2COCC[C@@H]2O)C3=O)cc1C", "human M1 receptor (hCHRM1) (Homo sapiens)", 47),
    ("Cc1cc2c(cc1Cc1ccc(-c3cn(C)nn3)cc1)C(=O)N([C@H]1CCCC[C@@H]1O)C2 (racemic)", "human M1 receptor (hCHRM1) (Homo sapiens)", 3),
    ("COc1ccc(Cc2cc3c(c(F)c2C)CN([C@H]2CCCC[C@@H]2O)C3=O)cc1", "human M1 receptor (hCHRM1) (Homo sapiens)", 22),
    ("Cc1c(Cc2ccc(-n3cccn3)cc2)cc2c(c1C)CN([C@H]1COCC[C@@H]1O)C2=O (racemic)", "human M1 receptor (hCHRM1) (Homo sapiens)", 3.9),
    ("Cc1cc(-c2ccc(Cc3cc4c(cc3C)CN([C@H]3CCC[C@@H]3O)C4=O)cc2)ccn1 (racemic)", "human M1 receptor (hCHRM1) (Homo sapiens)", 94),
    ("CCc1cc2c(cc1Cc1ccc(-c3ccn(C)n3)cc1)C(=O)N([C@H]1COCC[C@@H]1O)C2", "human M1 receptor (hCHRM1) (Homo sapiens)", 6.1),
    ("O=C1c2cc(Cc3ccc(-n4cccn4)cc3)c(C(F)(F)F)c(Cl)c2CN1[C@H]1CCCC[C@@H]1O (racemic)", "human M1 receptor (hCHRM1) (Homo sapiens)", 66),
    ("Cc1c(Cc2ccc(-n3cccn3)cc2)cc2c(c1C)CN([C@H]1CCCC[C@@H]1O)C2=O (racemic)", "human M1 receptor (hCHRM1) (Homo sapiens)", 9.5),
    ("COc1ccc(Cc2cc3c(c(C)c2C)CN([C@H]2COCC[C@@H]2O)C3=O)c(F)c1", "human M1 receptor (hCHRM1) (Homo sapiens)", 51),
    ("CCc1cc2c(cc1Cc1ccc(-n3cccn3)cc1)C(=O)N([C@H]1CCC[C@@H]1O)C2 (racemic)", "human M1 receptor (hCHRM1) (Homo sapiens)", 34),
    ("Cc1cc(-c2ccc(Cc3cc4c(cc3C)CN([C@H]3CCC[C@@H]3O)C4=O)cn2)ccn1 (racemic)", "human M1 receptor (hCHRM1) (Homo sapiens)", 30),
    ("Cc1c(C#N)c(Cc2ccc(-n3cccn3)cc2)cc2c1CN([C@H]1CCCC[C@@H]1O)C2=O (racemic)", "human M1 receptor (hCHRM1) (Homo sapiens)", 13),
]

---

Here the recorded EC50 is given for each entry.
target: UniProtKB P11229; experiment: Measurement of M1 receptor positive allosteric modulator (M1PAM) activity, calcium fluorescence (FLIPRtetra) with acetylcholine at EC20; conditions: inflection point of concentration-dependent curve; CHO-K1 cells expressing hCHRM1; acetylcholine at EC20 (final 0.6-0.8 nM); read-out: IP value

# MOLECULE, EC50 (nM)
data = [
    ("Cc1cc2c(cc1Cc1ccc(-c3ccn(C)n3)nc1)C(=O)N([C@H]1CCCC[C@@H]1O)C2 (racemic) [Example 42]", 9.2),
    ("Cn1cc(-c2ccc(Cc3cc4c(cc3Cl)CN([C@H]3CCCC[C@@H]3O)C4=O)cc2)cn1 (racemic) [Example 75]", 23),
    ("COc1ccc(Cc2cc3c(cc2C)CN([C@H]2COCC[C@@H]2O)C3=O)cc1 [Example 164]", 62),
    ("COc1ccc(Cc2cc3c(c(F)c2OC)CN([C@H]2CCCC[C@@H]2O)C3=O)cc1 [Example 161]", 32),
    ("CCc1ccc(Cc2cc3c(c(C)c2C)CN([C@H]2CCCC[C@@H]2O)C3=O)cn1 [Example 149]", 16),
    ("Cc1nn(C)cc1-c1ccc(Cc2cc3c(c(C)c2C)CN([C@H]2CCCC[C@@H]2O)C3=O)c(F)c1 (racemic) [Example 94]", 9.5),
    ("Cn1cc(-c2ccc(Cc3ccc4c(c3)C(=O)N([C@H]3CCCC[C@@H]3O)C4)cn2)cn1 (racemic) [Example 1]", 750),
    ("COc1c(Cc2ccc(-n3cccn3)cc2)cc2c(c1F)CN([C@H]1CCCC[C@@H]1O)C2=O (racemic) [Example 97]", 5.3),
    ("CCOc1ccc(Cc2cc3c(c(C)c2C)CN([C@H]2COCC[C@@H]2O)C3=O)cc1 [Example 142]", 31),
    ("CCc1cc2c(cc1Cc1ccc(OC)cc1)C(=O)N([C@H]1COCC[C@@H]1O)C2 [Example 148]", 63),
    ("Cc1c(Cc2ccc(C#N)cc2)cc2c(c1C)CN([C@H]1CCCC[C@@H]1O)C2=O [Example 155]", 7.1),
    ("Cc1cc(-c2ccc(Cc3cc4c(cc3C)CN([C@H]3CCCC[C@@H]3O)C4=O)cc2)ccn1 (racemic) [Example 99]", 16),
    ("COc1ccc(Cc2cc3c(c(Cl)c2C)CN([C@H]2CCC[C@@H]2O)C3=O)cc1 [Example 152]", 47),
    ("Cc1c(Cc2ccc(C(N)=O)cc2F)cc2c(c1C)CN([C@H]1COCC[C@@H]1O)C2=O (racemic) [Example 113]", 1.5),
    ("Cc1c(Cc2ccc(-c3cnn(C)c3)cc2)cc2c(c1C)CN(CC1CCCO1)C2=O (stereo not drawn) [Example 84]", 52),
    ("Cc1cc2c(cc1Cc1ccc(-c3cn(C)nc3C)nc1)C(=O)N([C@H]1CCC[C@@H]1O)C2 (racemic) [Example 40]", 37),
    ("Cc1c(Cc2ccc(C#N)c(F)c2)cc2c(c1C)CN([C@H]1COCC[C@@H]1O)C2=O [Example 26]", 9.2),
    ("CNC(=O)c1ccc(Cc2cc3c(c(C)c2C)CN([C@H]2COCC[C@@H]2O)C3=O)cc1F [Example 19]", 2),
    ("Cc1c(Cc2ccc(-n3cccn3)cc2)cc2c(c1Cl)CN([C@H]1CCCC[C@@H]1O)C2=O (racemic) [Example 93]", 5.6),
    ("Cc1cc2c(cc1Cc1ccc(-c3cn(C)nc3C)nc1)C(=O)N([C@H]1CCCC[C@@H]1O)C2 (racemic) [Example 5]", 8.2),
    ("Cn1cc(-c2ccc(Cc3cc4c(cc3C3CC3)CN(CC3CCCO3)C4=O)cc2)nn1 (stereo not drawn) [Example 61]", 35),
]
